systemName: T1, 4H741-bN
T1 chain: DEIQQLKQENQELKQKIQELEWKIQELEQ
protocolText: two-hybrid library CCNG1;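 also: natural log of median RNA to DNA barcode read ratio; higher means stronger binding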
The following binders are shown together with reported interaction score values.
Give the figure only, with no unit attached.

binder | interaction score
DKIQQLKQKNQELKQKNQELEWEIQELEQ [4H3057-bN] | -0.673
DEIQQLKQENQELKQKIQELEWKIQELEQ [4H741-bN] | 1.19
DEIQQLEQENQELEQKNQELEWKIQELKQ [4H182-bN] | -0.228
DKIQQLKQEIQELEQENQELKWENQELKQ [4H2588-bN] | 0.0254
DKIQQLEQKNQELKQEIQELEWKNQELEQ [4H2503-bN] | -0.327

Q: I am curious: what interaction score value has been reported for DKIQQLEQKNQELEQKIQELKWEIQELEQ [4H2473-bN] ?
Ans: -1.72

Q: I am curious: what interaction score value has been reported for DKIQQLKQKIQELKQKIQELEWENQELEQ [4H2915-bN] ?
Ans: -1.16

src = paper PMC10397247
